Molecular target: human recombinant CB1R (Homo sapiens, UniProt P21554)
Construct: purchased Perkin-Elmer, Italy; host or cells: HEK-293 cells (membranes)
Sequence (P21554 whole entry): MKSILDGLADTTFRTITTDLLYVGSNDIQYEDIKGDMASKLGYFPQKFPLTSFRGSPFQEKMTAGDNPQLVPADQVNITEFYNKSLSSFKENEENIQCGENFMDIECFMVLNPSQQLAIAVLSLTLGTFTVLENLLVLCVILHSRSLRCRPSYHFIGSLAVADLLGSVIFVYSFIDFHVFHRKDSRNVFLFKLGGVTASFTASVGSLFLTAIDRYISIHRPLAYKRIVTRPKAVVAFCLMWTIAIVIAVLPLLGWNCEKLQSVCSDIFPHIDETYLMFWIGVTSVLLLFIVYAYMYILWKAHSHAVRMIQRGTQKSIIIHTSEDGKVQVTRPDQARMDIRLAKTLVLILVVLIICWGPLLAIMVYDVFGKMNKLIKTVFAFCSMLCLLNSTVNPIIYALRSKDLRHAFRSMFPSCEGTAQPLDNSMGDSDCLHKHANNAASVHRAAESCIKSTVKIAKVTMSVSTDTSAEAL
Assay: Competition binding assay, displacement of [3H]-CP-55,940 from membranes of HEK-293 cells overexpressing CB1R
Details: max conc. tested 10 µM; read-out: % Displacement/ Max. Conc. Tested, hCB1R
Procedure: The binding affinities (Ki values) of the compounds for human recombinant hCB1R and hCB2R were determined as previously described, using SR144528 as a reference compound [30], and are reported in Table 1. Compound affinity for CB1R and CB2R was measured as previously reported. […] Ki values were calculated by applying the Cheng−Prusoff equation to the IC50 values for the displacement of the bound radioligand by increasing concentrations of the test compound. […]
measured.endpoint: inhibition at 10 µM (%)
Entry rule: numbers only, all in %.

{"substance.smiles": "CCN1CC(=NS(=O)(=O)c2ccc(Cl)cc2)N(CC)C1=O", "measured.endpoint": "inhibition at 10 µM", "measured.number": 17.8}
{"substance.smiles": "Cc1cc(C)c(S(=O)(=O)N=C2CN(C(C)(C)C)C(=O)N2c2ccccc2)c(C)c1", "measured.endpoint": "inhibition at 10 µM", "measured.number": 0}
{"substance.smiles": "CCN1CC(=NS(=O)(=O)c2ccc(Br)cc2)N(CC)C1=O", "measured.endpoint": "inhibition at 10 µM", "measured.number": 20.6}
{"substance.smiles": "CCN1CC(=NS(=O)(=O)c2ccc(C)cc2)N(CC)C1=O", "measured.endpoint": "inhibition at 10 µM", "measured.number": 8.78}

Now for another entry.
Identify measured inhibition at 10 µM associated with CN1CC(=NS(=O)(=O)c2ccc(Br)cc2)N(C)C1=O
14.9
